// data source = ChEMBL document CHEMBL1833919

Provide the reported Ratio Ki of each item.
Organism: Homo sapiens
test.method.notes: Selectivity ratio of Ki for human recombinant adenosine 2a receptor to Ki for human recombinant adenosine A3 receptor
Answers are plain numbers.

Look over these answered cases.
Value lookup for Ratio Ki; key = "COc1ccc(NC(=O)Nc2nc3nn(C)cc3c3nc(-c4ccc(Cl)cc4)nn23)cc1"
1100

Tell me the measured Ratio Ki of "Cn1cc2c(nc(NC(=O)Nc3ccc(F)cc3)n3nc(-c4ccc(Br)cc4)nc23)n1" , please.
3450

Param item = "Cn1cc2c(nc(NC(=O)Nc3ccccc3)n3nc(-c4ccco4)nc23)n1" ; retrieve measured Ratio Ki.
2380

Record Ratio Ki per entry; entries follow.
1. COc1ccc(NC(=O)Nc2nc3nn(C)cc3c3nc(-c4ccc(Br)cc4)nn23)cc1
2. O=C(Nc1nc2nn(CCc3ccccc3)cc2c2nc(-c3ccc(F)cc3)nn12)c1ccccc1
3. Cn1cc2c(nc(N)n3nc(-c4ccc(C(F)(F)F)cc4)nc23)n1
4. O=C(Nc1nc2nn(CCc3ccccc3)cc2c2nc(-c3ccc(Cl)cc3)nn12)c1ccccc1
5. Cn1cc2c(nc(NC(=O)Nc3ccccc3)n3nc(-c4ccc(C(F)(F)F)cc4)nc23)n1

[4310, 236, 22.8, 1700, 10500]

---

target.or.test.system: Adenosine receptor A2a (Homo sapiens, UniProt P29274)
Sequence (P29274 whole entry): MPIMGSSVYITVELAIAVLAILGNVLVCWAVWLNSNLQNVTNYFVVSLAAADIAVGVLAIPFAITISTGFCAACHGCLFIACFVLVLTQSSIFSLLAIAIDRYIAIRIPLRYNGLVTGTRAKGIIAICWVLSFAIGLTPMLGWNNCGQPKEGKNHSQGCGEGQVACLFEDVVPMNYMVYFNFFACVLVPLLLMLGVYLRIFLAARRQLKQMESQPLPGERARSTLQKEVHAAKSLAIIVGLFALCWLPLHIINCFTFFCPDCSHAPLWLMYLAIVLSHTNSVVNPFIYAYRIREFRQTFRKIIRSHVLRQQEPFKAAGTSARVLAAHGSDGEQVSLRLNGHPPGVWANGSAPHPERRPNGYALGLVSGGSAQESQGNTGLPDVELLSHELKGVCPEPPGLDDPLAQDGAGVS
test.method.notes: Displacement of [3H]NECA from human recombinant adenosine 2A receptor expressed in CHO cells after 3 hrs
Assay type: cell-based
In plain terms, low Ki, meaning strictly below 4 µM, gives Satisfied, and everything else gives Not satisfied.

Solved entries (count: 3):
Field: below-cutoff. Rule: recorded Ki strictly less than 4 µM. Subject: "Cn1cc2c(nc(NC(=O)Nc3ccc(F)cc3)n3nc(-c4ccc(C(F)(F)F)cc4)nc23)n1"
Not satisfied

I wonder whether "COc1ccc(-c2nc3c4cn(CCc5ccccc5)nc4nc(NC(=O)c4ccccc4)n3n2)cc1" has Ki below 4 µM. Can you tell?
Not satisfied

Dear colleague, could you confirm whether Ki of "COc1ccc(NC(=O)Nc2nc3nn(C)cc3c3nc(-c4ccc(C(F)(F)F)cc4)nn23)cc1" falls below 4 µM? Thanks.
Not satisfied

More entries:
Does this compound meet the criterion Ki < 4 µM? "Cn1cc2c(nc(NC(=O)Nc3ccccc3)n3nc(-c4ccc(Cl)cc4)nc23)n1"
Satisfied

---

target.or.test.system: Adenosine receptor A2a (Homo sapiens, UniProt P29274)
test.method.notes: Displacement of [3H]NECA from human recombinant adenosine 2A receptor expressed in CHO cells after 3 hrs
pKi: −log10 of the molar value.
For each entry below, report its pKi value.

A selection of reference data follows.
Looking for the measured pKi of "Cn1cc2c(nc(NC(=O)Nc3ccc(F)cc3)n3nc(-c4ccc(-c5ccccc5)cc4)nc23)n1" , can you help?
< 4.00

Returns the measured pKi for the input compound. Input: "Cn1cc2c(nc(NC(=O)Nc3ccccc3)n3nc(-c4ccc(-c5ccccc5)cc4)nc23)n1"
< 4.52

Endpoint output: pKi of "Cn1cc2c(nc(N)n3nc(-c4ccc(-c5ccccc5)cc4)nc23)n1" . Value?
< 4.52

// next item, pKi requested
For the compound shown here, "COc1ccc(NC(=O)Nc2nc3nn(C)cc3c3nc(-c4ccc(-c5ccccc5)cc4)nn23)cc1" , give the reported pKi.
< 4.00

---

Kindly supply the reported Ratio Ki values for the records listed here.
target.or.test.system: Adenosine receptors; A1 & A3 (Homo sapiens) (UniProt P30542+P0DMS8)
test.method.notes: Selectivity ratio of Ki for human recombinant adenosine A1 receptor to Ki for human recombinant adenosine A3 receptor

Completed entries (count: 5):
Quick check: Ratio Ki on Adenosine receptors; A1 & A3 (Homo sapiens) (UniProt P30542+P0DMS8), item "Cn1cc2c(nc(N)n3nc(-c4ccc(C(F)(F)F)cc4)nc23)n1" ?
> 329

Look up Ratio Ki with Adenosine receptors; A1 & A3 (Homo sapiens) (UniProt P30542+P0DMS8) for this compound: "COc1ccc(NC(=O)Nc2nc3nn(C)cc3c3nc(-c4ccc(Br)cc4)nn23)cc1"
> 5130

What reported Ratio Ki corresponds to "Cn1cc2c(nc(N)n3nc(-c4ccc(-c5ccccc5)cc4)nc23)n1" on Adenosine receptors; A1 & A3 (Homo sapiens) (UniProt P30542+P0DMS8)?
> 680

Please provide the recorded Ratio Ki for "Cn1cc2c(nc(NC(=O)Nc3ccccc3)n3nc(-c4ccc(Br)cc4)nc23)n1" , tested on Adenosine receptors; A1 & A3 (Homo sapiens) (UniProt P30542+P0DMS8).
> 4000

Requested read-out Ratio Ki, target or system Adenosine receptors; A1 & A3 (Homo sapiens) (UniProt P30542+P0DMS8), entry "Cn1cc2c(nc(NC(=O)Nc3ccc(F)cc3)n3nc(-c4ccc(-c5ccccc5)cc4)nc23)n1"
> 24600

Okay, here is my list. What is Ratio Ki for each of these?
1. COc1ccc(NC(=O)Nc2nc3nn(C)cc3c3nc(-c4ccc(-c5ccccc5)cc4)nn23)cc1
2. COc1ccc(NC(=O)Nc2nc3nn(C)cc3c3nc(-c4ccc(C(F)(F)F)cc4)nn23)cc1

["> 47600", "> 42400"]

Batch lookup, Ratio Ki per entry.
1. Cn1cc2c(nc(NC(=O)Nc3ccc(F)cc3)n3nc(-c4ccc(Br)cc4)nc23)n1
2. Cn1cc2c(nc(NC(=O)Nc3ccccc3)n3nc(-c4ccc(-c5ccccc5)cc4)nc23)n1
3. Cn1cc2c(nc(NC(=O)Nc3ccc(F)cc3)n3nc(-c4ccc(Cl)cc4)nc23)n1

1: > 17400; 2: > 5090; 3: > 5660

---

target.or.test.system: Adenosine receptor A1 (Homo sapiens, UniProt P30542)
Sequence (P30542 whole entry): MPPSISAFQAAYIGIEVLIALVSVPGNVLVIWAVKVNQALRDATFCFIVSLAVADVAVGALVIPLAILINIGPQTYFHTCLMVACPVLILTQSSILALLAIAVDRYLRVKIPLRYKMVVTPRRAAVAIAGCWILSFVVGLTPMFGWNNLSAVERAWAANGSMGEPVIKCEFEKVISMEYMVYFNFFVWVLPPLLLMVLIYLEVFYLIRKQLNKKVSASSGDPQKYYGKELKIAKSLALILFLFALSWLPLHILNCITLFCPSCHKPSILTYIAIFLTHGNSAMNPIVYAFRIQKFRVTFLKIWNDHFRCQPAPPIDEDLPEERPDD
test.method.notes: Displacement of [3H]CCPA from human recombinant adenosine A1 receptor expressed in CHO cells after 3 hrs
Please provide measured Ki for the entries that follow.

Example entries begin here.
Given the compound "Cn1cc2c(nc(NC(=O)Nc3ccc(F)cc3)n3nc(-c4ccc(-c5ccccc5)cc4)nc23)n1" , what is its reported Ki?
> 100 µM

Can you share its Ki? I mean this compound: "Cn1cc2c(nc(NC(=O)Nc3ccc(F)cc3)n3nc(-c4ccc(Br)cc4)nc23)n1"
> 30 µM

Given the compound "COc1ccc(NC(=O)Nc2nc3nn(C)cc3c3nc(-c4ccc(C(F)(F)F)cc4)nn23)cc1" , what is its reported Ki?
> 100 µM

# get_value(readout='Ki', item= "COc1ccc(NC(=O)Nc2nc3nn(C)cc3c3nc(-c4ccc(Br)cc4)nn23)cc1" )
> 10 µM

Quick check: Ki of "O=C(Cc1ccccc1)Nc1nc2nn(CCc3ccccc3)cc2c2nc(-c3ccc(Br)cc3)nn12" ?
> 10 µM

For every listed record, write down its Ki.
1. Cn1cc2c(nc(NC(=O)Nc3ccccc3)n3nc(-c4ccc(Br)cc4)nc23)n1
2. Cn1cc2c(nc(NC(=O)Nc3ccccc3)n3nc(-c4ccc(-c5ccccc5)cc4)nc23)n1
3. Cn1cc2c(nc(NC(=O)Nc3ccc(F)cc3)n3nc(-c4ccc(Cl)cc4)nc23)n1

1: > 10 µM; 2: > 30 µM; 3: > 30 µM

Quick batch: Ki for everything below.
1. Cn1cc2c(nc(N)n3nc(-c4ccc(-c5ccccc5)cc4)nc23)n1
2. COc1ccc(NC(=O)Nc2nc3nn(C)cc3c3nc(-c4ccc(-c5ccccc5)cc4)nn23)cc1
3. Cn1cc2c(nc(N)n3nc(-c4ccc(C(F)(F)F)cc4)nc23)n1

["> 100 µM", "> 100 µM", "> 100 µM"]

---

target.or.test.system: Adenosine receptor A3 (Homo sapiens, UniProt P0DMS8)
Sequence (P0DMS8 whole entry): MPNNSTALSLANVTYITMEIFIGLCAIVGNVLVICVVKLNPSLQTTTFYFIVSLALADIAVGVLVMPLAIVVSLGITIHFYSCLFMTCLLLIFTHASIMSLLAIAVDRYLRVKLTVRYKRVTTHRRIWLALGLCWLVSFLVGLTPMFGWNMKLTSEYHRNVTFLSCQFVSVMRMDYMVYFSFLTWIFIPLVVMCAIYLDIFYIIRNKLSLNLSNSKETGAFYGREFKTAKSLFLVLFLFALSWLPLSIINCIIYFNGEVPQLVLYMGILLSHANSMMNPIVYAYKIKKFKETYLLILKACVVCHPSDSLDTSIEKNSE
test.method.notes: Displacement of [3H]NECA from human recombinant adenosine A3 receptor expressed in CHO cells after 3 hrs
For each record, write down the corresponding pKi.
One number for each entry, as −log10 of the molar value.

Worked cases, answers included:
Consider the molecule shown here: "Cn1cc2c(nc(NC(=O)Nc3ccccc3)n3nc(-c4ccc(Br)cc4)nc23)n1" What is its recorded pKi?
8.60

I am curious: what pKi value has been reported for "COc1ccc(NC(=O)Nc2nc3nn(C)cc3c3nc(-c4ccc(C(F)(F)F)cc4)nn23)cc1" ?
8.63

For each of the items listed, what is its pKi?
1. O=C(Cc1ccccc1)Nc1nc2nn(CCc3ccccc3)cc2c2nc(-c3ccco3)nn12
2. Cn1cc2c(nc(NC(=O)Nc3ccccc3)n3nc(-c4ccc(Cl)cc4)nc23)n1

7.35
8.77

---

Provide the reported Ratio Ki of each item.
Species: Homo sapiens
test.method.notes: Selectivity ratio of Ki for human recombinant adenosine 2a receptor to Ki for human recombinant adenosine A3 receptor
Numbers only.

Answered examples (3):
# lookup: Ratio Ki of "COc1ccc(-c2nc3c4cn(CCc5ccccc5)nc4nc(NC(=O)c4ccccc4)n3n2)cc1"
872

Fill in: Ratio Ki of "Cn1cc2c(nc(NC(=O)Nc3ccc(F)cc3)n3nc(-c4ccc(Cl)cc4)nc23)n1" is ___
200

Consider the compound shown here: "O=C(Cc1ccccc1)Nc1nc2nn(CCc3ccccc3)cc2c2nc(-c3ccccc3)nn12" What is its recorded Ratio Ki?
203

Others:
Tell me the measured Ratio Ki of "O=C(Cc1ccccc1)Nc1nc2nn(CCc3ccccc3)cc2c2nc(-c3ccc(F)cc3)nn12" , please.
171
